test: AUC in Sprague-Dawley rat at 1 mg/kg, iv; type: ADME, organism-based; details: in vivo

# Item Smiles, AUC / µM·h
rows = [
    ("Nc1ncnc2c1c(-c1cccc(OCc3ccccc3)c1)cn2[C@H]1C[C@@H](CN2CCC2)C1", 0.266),
]

* * *

Reported clearance values are given for each entry in this list.
experiment: Clearance in rat; type: ADME, organism-based; conditions: in vivo

# Item Smiles, clearance
data = [
    ("CC(=O)N1CCN([C@H]2C[C@@H](n3cc(-c4cc(OC[C@@H]5CCCO5)ccc4F)c4c(N)ncnc43)C2)CC1", "28 mL/min/kg"),
    ("Nc1ncnc2c1c(-c1cccc(OCc3ccccc3)c1)cn2[C@H]1C[C@@H](CN2CCC2)C1", "123 mL/min/kg"),
    ("CC(=O)N1CCN([C@H]2C[C@@H](n3cc(-c4cccc(OC[C@@H]5CCCO5)c4F)c4c(N)ncnc43)C2)CC1", "40 mL/min/kg"),
]
